Biological target: T1, C-reactive protein (human), P02741
T1 chain: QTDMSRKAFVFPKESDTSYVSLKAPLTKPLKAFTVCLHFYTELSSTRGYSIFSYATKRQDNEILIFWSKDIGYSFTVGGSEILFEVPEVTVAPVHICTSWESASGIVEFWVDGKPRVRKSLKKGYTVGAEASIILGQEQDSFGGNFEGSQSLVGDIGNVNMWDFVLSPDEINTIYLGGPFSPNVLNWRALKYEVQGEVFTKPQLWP
Assay: FACS
Conditions: modification not given
assay_readout: Kd (nM)

EWACNDRGFNCQLQR [CRP-1] | 1
